These measurements were taken from patent US20090099029A1.

Biological target: kinases of Table 5 (Homo sapiens, UniProt Q9Y616)
Sequence (Q9Y616 whole entry): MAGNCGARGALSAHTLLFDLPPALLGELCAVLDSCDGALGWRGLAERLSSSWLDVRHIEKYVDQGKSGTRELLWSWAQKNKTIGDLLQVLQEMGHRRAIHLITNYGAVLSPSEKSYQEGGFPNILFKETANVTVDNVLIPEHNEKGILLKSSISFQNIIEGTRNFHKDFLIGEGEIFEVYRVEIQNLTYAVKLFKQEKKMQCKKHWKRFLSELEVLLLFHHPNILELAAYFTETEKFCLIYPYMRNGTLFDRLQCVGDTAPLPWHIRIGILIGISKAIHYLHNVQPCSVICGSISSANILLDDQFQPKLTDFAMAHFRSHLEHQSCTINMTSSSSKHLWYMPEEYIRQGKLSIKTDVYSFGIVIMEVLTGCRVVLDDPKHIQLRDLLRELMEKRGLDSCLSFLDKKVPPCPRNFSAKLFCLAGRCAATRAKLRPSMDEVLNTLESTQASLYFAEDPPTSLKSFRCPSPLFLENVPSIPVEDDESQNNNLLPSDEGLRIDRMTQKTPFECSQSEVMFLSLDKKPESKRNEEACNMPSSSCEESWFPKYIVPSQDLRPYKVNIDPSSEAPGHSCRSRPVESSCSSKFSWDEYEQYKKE
Assay: Further analysis of a plurality of inhibitors and a plurality of kinases (Table 5 inhibition results)
Assay type: biochemical
Set-up: scale not given here
Conditions: kinase IRAK3 (Part I, plate C9, Domain 1); inhibitor 100 uM
measured_parameter: Inhibition Results (Level)

I: Cn1cc(C2=C(c3cn(CCCSC(=N)N)c4ccccc34)C(=O)NC2=O)c2ccccc21
II: O=S(=O)(NCCNC/C=C/c1ccc(Br)cc1)c1cccc2cnccc12
Query :: Which entry shows the lesser value of Inhibition Results (Level) here, I or II ? Field: selected label. Fill in the label of the entry you choose.
Result :: II
(II: 0, I: 2)

====

Target: kinases of Table 5 (Homo sapiens)
Assay: Further analysis of a plurality of inhibitors and a plurality of kinases (Table 5 inhibition results)
Assay type: biochemical
Set-up: scale not given here
Conditions: kinase PIM1 (Part I, plate C2, Domain 1); inhibitor 100 uM
measured_parameter: Inhibition Results (Level)

| chemical_smiles | Inhibition Results (Level) |
| --- | --- |
| O=c1c(-c2ccc(O)cc2)coc2cc(O)cc(O)c12 | 2 |

1: CC(C)(C)n1nc(-c2ccc(Cl)cc2)c2c(N)ncnc21
2: COc1cc2ncnc(Nc3cccc(Cl)c3)c2cc1OC
Query :: Lab notebook, comparison: 1 versus 2 , higher Inhibition Results (Level) goes to which? Field: selected label. Fill in the label of the entry you choose.
Result :: 1

1: O=S(=O)(NCCNC/C=C/c1ccc(Br)cc1)c1cccc2cnccc12
2: Cn1cc(C2=C(c3cn(CCCSC(=N)N)c4ccccc34)C(=O)NC2=O)c2ccccc21
Query :: Which entry shows the lesser value of Inhibition Results (Level) here, 1 or 2 ? Field: selected label. Fill in the label of the entry you choose.
Result :: 2

====

Target: kinases of Table 5 (Homo sapiens, UniProt Q9Y6E0)
Sequence (Q9Y6E0 whole entry): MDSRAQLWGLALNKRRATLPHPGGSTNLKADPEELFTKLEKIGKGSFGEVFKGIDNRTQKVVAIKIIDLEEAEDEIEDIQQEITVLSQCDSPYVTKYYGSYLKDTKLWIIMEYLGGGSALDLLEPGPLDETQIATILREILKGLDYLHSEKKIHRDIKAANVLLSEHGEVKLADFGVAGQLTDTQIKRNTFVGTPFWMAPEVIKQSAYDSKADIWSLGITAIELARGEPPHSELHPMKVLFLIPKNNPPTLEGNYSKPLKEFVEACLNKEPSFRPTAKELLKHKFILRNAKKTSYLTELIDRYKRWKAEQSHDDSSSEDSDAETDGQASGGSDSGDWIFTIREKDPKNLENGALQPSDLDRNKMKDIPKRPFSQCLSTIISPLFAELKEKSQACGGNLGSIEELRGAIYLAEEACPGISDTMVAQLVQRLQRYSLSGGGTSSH
Experiment: Further analysis of a plurality of inhibitors and a plurality of kinases (Table 5 inhibition results)
Assay type: biochemical
Parameters: scale not given here
Details: kinase STK24; inhibitor 100 uM
measured_parameter: Inhibition level

Worked examples follow.
| chemical_smiles | Inhibition level |
| --- | --- |
| N#C/C(=C/c1ccc(O)c(O)c1)C(=O)NCc1ccccc1 | 2 |
| CC(C)(C)n1nc(-c2ccc(Cl)cc2)c2c(N)ncnc21 | 2 |
| O=c1c(-c2ccc(O)cc2)coc2cc(O)cc(O)c12 | 2 |

I: Cn1cc(C2=C(c3cn(CCCSC(=N)N)c4ccccc34)C(=O)NC2=O)c2ccccc21
II: COc1cc2ncnc(Nc3cccc(Cl)c3)c2cc1OC
Query :: Which entry shows the lesser value of Inhibition level here, I or II ? Field: selected label. Fill in the label of the entry you choose.
Result :: II

====

Molecular target: kinases of Table 5 (Homo sapiens)
Experiment: Further analysis of a plurality of inhibitors and a plurality of kinases (Table 5 inhibition results)
Assay type: biochemical
Parameters: scale not given here
Conditions: kinase STK16 (Part I, plate C3, Domain 1); inhibitor 100 uM
From the text: The wash solution is then discarded.
measured_parameter: Inhibition Results (Level)

| chemical_smiles | assay_target | Inhibition Results (Level) |
| --- | --- | --- |
| CC(=O)c1c(O)c(C)c(O)c(Cc2c(O)c3c(c(C(=O)/C=C/c4ccccc4)c2O)OC(C)(C)C=C3)c1O | kinases of Table 5 (Homo sapiens) | 0 |
| O=c1c(-c2ccc(O)cc2)coc2cc(O)cc(O)c12 | kinases of Table 5 (Homo sapiens) | 0 |
| COc1cc2ncnc(Nc3cccc(Cl)c3)c2cc1OC | kinases of Table 5 (Homo sapiens) | 0 |
| CC(C)(C)n1nc(-c2ccc(Cl)cc2)c2c(N)ncnc21 | kinases of Table 5 (Homo sapiens) | 2 |
| O=c1c(O)c(-c2ccc(O)c(O)c2)oc2cc(O)cc(O)c12 | kinases of Table 5 (Homo sapiens) | 0 |
| N#C/C(=C/c1ccc(O)c(O)c1)C(=O)NCc1ccccc1 | kinases of Table 5 (Homo sapiens) | 0 |

1: O=S(=O)(NCCNC/C=C/c1ccc(Br)cc1)c1cccc2cnccc12
2: Cn1cc(C2=C(c3cn(CCCSC(=N)N)c4ccccc34)C(=O)NC2=O)c2ccccc21
Query :: Lab notebook, comparison: 1 versus 2 , higher Inhibition Results (Level) goes to which? Field: selected label. Fill in the label of the entry you choose.
Result :: 1
(1: 2, 2: 1)
